tested on: C. albicans Wisc.; assay: In vitro antifungal activity, MIC (modified Autotiter method); format: cell-based, Candida albicans; conditions: 18-20 hours at 37° C.
Items are presented alongside their recorded MIC C. albicans Wisc..
QUANTITY: MIC C. albicans Wisc. (µg/mL)

CCCCCCCCCNc1cc[n+](CCCCCC[n+]2ccc(NCCCCCCCCC)cc2)cc1
1.95
CCCCCCCNc1cc[n+](CCCCCCCCC[n+]2ccc(NCCCCCCC)cc2)cc1
1.0
CCCCCCCCNc1cc[n+](CCCCCCCC[n+]2ccc(NCCCCCCCC)cc2)cc1
1.0
CCCCCCCNc1cc[n+](CCCCCCCCCC[n+]2ccc(NCCCCCCC)cc2)cc1
1.0
CCCCCCCCNc1cc[n+](CCCCCCCCCC[n+]2ccc(NCCCCCCCC)cc2)cc1
1.0
CCCCCCCNc1cc[n+](CCCCCC[n+]2ccc(NCCCCCCC)cc2)cc1 [Example 62C]
3.9
CCCCCCNc1cc[n+](CCCCCCCCCCCC[n+]2ccc(NCCCCCC)cc2)cc1
0.74
CCCCCCCNc1cc[n+](CCCCCCCC[n+]2ccc(NCCCCCCC)cc2)cc1
1.95
CCCCC(CC)CNc1cc[n+](CCCCCCCCCC[n+]2ccc(NCC(CC)CCCC)cc2)cc1 (centres unmarked)
1.95
CCCCCCNc1cc[n+](CCCCCCCCCCCCCC[n+]2ccc(NCCCCCC)cc2)cc1
1.95
CCCCCCCNc1cc[n+](CCCCCCCCCCCCCC[n+]2ccc(NCCCCCCC)cc2)cc1 [Example 2]
7.8
CCCCCCCCNc1cc[n+](CCCCCC[n+]2ccc(NCCCCCCCC)cc2)cc1
1.95
CCCCCCCNc1cc[n+](CCCCCCCCCCCC[n+]2ccc(NCCCCCCC)cc2)cc1
1.95
CCCCCCCNc1cc[n+](CCCCCCCCCCCCCC[n+]2ccc(NCCCCCCC)cc2)cc1 [Example 1D]
1.54

The values you see were collected from patent US4206215A.
